- Assayed System: human ether-à-go-go-related gene (hERG) potassium channel (human, UniProt Q12809)
- Sequence (Q12809 whole entry, looked up): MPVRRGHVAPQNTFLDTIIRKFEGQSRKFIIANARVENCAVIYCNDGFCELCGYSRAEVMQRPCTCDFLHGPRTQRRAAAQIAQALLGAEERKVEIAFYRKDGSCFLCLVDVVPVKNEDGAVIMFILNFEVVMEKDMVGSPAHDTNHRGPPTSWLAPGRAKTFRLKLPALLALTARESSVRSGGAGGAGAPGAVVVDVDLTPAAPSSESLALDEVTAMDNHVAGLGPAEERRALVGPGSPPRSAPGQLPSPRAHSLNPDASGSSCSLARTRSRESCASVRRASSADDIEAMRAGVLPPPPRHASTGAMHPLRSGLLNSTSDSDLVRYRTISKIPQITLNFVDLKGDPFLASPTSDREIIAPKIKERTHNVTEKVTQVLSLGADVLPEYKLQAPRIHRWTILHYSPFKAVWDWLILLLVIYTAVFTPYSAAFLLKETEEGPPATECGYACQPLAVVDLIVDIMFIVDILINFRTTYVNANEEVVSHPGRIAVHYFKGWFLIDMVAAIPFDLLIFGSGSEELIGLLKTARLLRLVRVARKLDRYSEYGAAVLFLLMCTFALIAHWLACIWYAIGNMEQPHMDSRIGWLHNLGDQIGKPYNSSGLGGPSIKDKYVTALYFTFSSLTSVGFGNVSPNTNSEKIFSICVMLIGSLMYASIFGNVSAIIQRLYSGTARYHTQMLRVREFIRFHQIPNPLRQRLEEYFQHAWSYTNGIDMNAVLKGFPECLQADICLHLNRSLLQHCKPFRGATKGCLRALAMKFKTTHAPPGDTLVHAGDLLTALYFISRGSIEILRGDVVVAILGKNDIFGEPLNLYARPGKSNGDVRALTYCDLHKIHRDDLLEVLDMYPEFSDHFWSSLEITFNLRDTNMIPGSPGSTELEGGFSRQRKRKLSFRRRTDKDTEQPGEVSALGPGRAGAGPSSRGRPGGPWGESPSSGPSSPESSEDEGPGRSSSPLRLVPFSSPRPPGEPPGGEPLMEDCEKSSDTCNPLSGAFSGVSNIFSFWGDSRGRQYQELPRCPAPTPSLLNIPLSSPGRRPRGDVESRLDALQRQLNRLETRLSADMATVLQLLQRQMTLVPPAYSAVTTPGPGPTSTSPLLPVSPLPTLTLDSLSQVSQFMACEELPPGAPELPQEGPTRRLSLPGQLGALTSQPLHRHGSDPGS
- Experimental Details: primary screen, population patch clamp on CHO cells stably expressing hERG; higher = less effect of the substance
In all, about 310,000 compounds went through this assay and about 2,200 (0.71%) showed an effect of 50% or more. The effect is printed as a negative number. What follows is part of a selection rich in strong results, with near analogues and random picks from the rest.
Readout Type: hERG current change (%, negative = inhibition) at 1uM (%)
State the answer as a number, implicitly in %.

The examples below pair each entry with its known result.
[[record]]
molecule = "CCCCN(CCCC)CC(O)COc1ccccc1Br.Cl (stereo not drawn)"
assayed_system = "human ether-à-go-go-related gene (hERG) potassium channel (human, UniProt Q12809)"
measure_unit = "%"
obs_value = 1.61

[[record]]
molecule = "O=C(Nc1cnn(Cc2ccc(Cl)cc2)c1)C1CCCC1"
assayed_system = "human ether-à-go-go-related gene (hERG) potassium channel (human, UniProt Q12809)"
measure_unit = "%"
obs_value = -7.77


## Input Dear colleague, I am looking for the recorded hERG current change (%, negative = inhibition) at 1uM of the following molecule: CCCCN(CCCC)CC(O)COc1ccccc1C(=O)Nc1ccccc1 (stereo not drawn)
## Output -55

## Input Would you mind doing Cc1cc(C)cc(OCC(O)CN2CCN(Cc3ccc4c(c3)OCO4)CC2)c1.Cl (stereo not drawn) as well?
## Output -67.9

## Input Would you mind doing "CCCN(CC(=O)Nc1cc(C)on1)S(=O)(=O)c1cccc(C(F)(F)F)c1" as well?
## Output 11.3

====

- Assayed System: human ether-à-go-go-related gene (hERG) potassium channel (human)
- Experimental Details: primary screen, population patch clamp on CHO cells stably expressing hERG; higher = less effect of the substance
Among all 310,000 compounds or so, about 2,200 (0.71%) showed an effect of 50% or more. The effect is printed as a negative number. Many of the other results were omitted from the sample, so strong results are more common in it than they were.
hERG current change (%, negative = inhibition) at 1uM listing for selected compounds.
State the answer as a number, implicitly in %.

The examples below pair each entry with its known result.
[[record]]
compound_structure_string = "Clc1ccccc1OCCN1CCC(Cc2ccccc2)CC1.O=C(O)C(=O)O"
measure_unit = "%"
obs_value = 10.6

[[record]]
compound_structure_string = "O=[N+]([O-])c1ccc(NC2CCN(Cc3ccccc3)CC2)c([N+](=O)[O-])c1"
measure_unit = "%"
obs_value = -60

[[record]]
compound_structure_string = "CC(C)c1ccc(O)c(CN2CCN(c3ccccc3)CC2)c1"
measure_unit = "%"
obs_value = 10.3

[[record]]
compound_structure_string = "Cc1ccccc1OCCN1CCC(Cc2ccccc2)CC1.O=C(O)C(=O)O"
measure_unit = "%"
obs_value = -10

[[record]]
compound_structure_string = "O=[N+]([O-])c1cc(C(F)(F)F)ccc1NC1CCN(Cc2ccccc2)CC1"
measure_unit = "%"
obs_value = 3.28

[[record]]
compound_structure_string = "COc1ccc2[nH]c(C(=O)NCCc3ccccc3)cc2c1"
measure_unit = "%"
obs_value = 17.2

[[record]]
compound_structure_string = "Cc1cc([N+](=O)[O-])ccc1NC(=O)CN1CCN(Cc2ccccc2)CC1"
measure_unit = "%"
obs_value = -73.7

[[record]]
compound_structure_string = "COc1ccc(CN2CCN(Cc3ccc(C(F)(F)F)cc3)CC2)c(OC)c1.O=C(O)C(=O)O"
measure_unit = "%"
obs_value = -66.6

[[record]]
compound_structure_string = "Nc1cccc(Cl)c1N1CCOCC1"
measure_unit = "%"
obs_value = 9


## Input Dear colleague, I am looking for the recorded hERG current change (%, negative = inhibition) at 1uM of the following compound: "COc1cc(C(=O)OCC(=O)N2CCC(Cc3ccccc3)CC2)cc(OC)c1OC"
## Output 13.4

====

hERG current change (%, negative = inhibition) at 1uM listing for selected compounds.
- Assayed System: human ether-à-go-go-related gene (hERG) potassium channel (human, UniProt Q12809)
- Experimental Details: primary screen, population patch clamp on CHO cells stably expressing hERG; higher = less effect of the substance
Hit rate of the full screen: of about 310,000 compounds, about 2,200 (0.71%) showed an effect of 50% or more. Effects have a minus sign here. Shown is part of a subset that was picked to be rich in strong results.
State the answer as a number, implicitly in %.

[[record]]
compound = "COc1cc(S(=O)(=O)N2CCN(C(=O)c3ccco3)CC2)ccc1Cl"
obs_value = 8.83


## Input Dear colleague, I am looking for the recorded hERG current change (%, negative = inhibition) at 1uM of the following compound: "COC(=O)c1ccc(CN2CCC(n3nccc3NC(=O)C3CCCC3)CC2)cc1"
## Output -26.7

## Input Would you mind doing "COC(=O)c1ccc(CN2CCC(n3nccc3NC(=O)C3CC3)CC2)cc1" as well?
## Output -6.68

## Input Would you mind doing CC1CC(C)CN(c2cc(=O)n(Cc3ccc(F)cc3)c(=O)[nH]2)C1 (centres unmarked) as well?
## Output 17.9

## Input Would you mind doing "CC(C)Oc1ccc(CN2CCC(n3nccc3NC(=O)C3CC3)CC2)cc1" as well?
## Output -68.4

====

- Assayed System: human ether-à-go-go-related gene (hERG) potassium channel (human)
- Experimental Details: primary screen, population patch clamp on CHO cells stably expressing hERG; higher = less effect of the substance
The campaign covered roughly 310,000 compounds. About 2,200 (0.71%) showed an effect of 50% or more. Effects have a minus sign here. Shown is part of a subset that was picked to be rich in strong results.
hERG current change (%, negative = inhibition) at 1uM listing for selected molecules.
State the answer as a number, implicitly in %.

The examples below pair each entry with its known result.
[[record]]
molecule = "O=C(OCn1nnc2ccccc2c1=O)c1cccc(S(=O)(=O)N2CCOCC2)c1"
obs_value = 12.9

[[record]]
molecule = "CC(N=C1NS(=O)(=O)c2ccccc21)C(=O)OCC(=O)N(C)C1CCS(=O)(=O)C1 (centres unmarked)"
obs_value = -1.85

[[record]]
molecule = "COc1ccccc1S(=O)(=O)Cc1ccc(C(=O)NCCCN2CCN(c3ccc(F)cc3)CC2)o1"
obs_value = -68.3


## Input Dear colleague, I am looking for the recorded hERG current change (%, negative = inhibition) at 1uM of the following molecule: "O=C(CN1CCCC1=O)NCCc1ccccc1"
## Output 8.88

## Input Would you mind doing "CC(C)(C)NC(=S)N/N=C\c1ccc(-c2ccc([N+](=O)[O-])cc2)o1" as well?
## Output 13.3

====

- Assayed System: human ether-à-go-go-related gene (hERG) potassium channel (human, UniProt Q12809)
- Experimental Details: primary screen, population patch clamp on CHO cells stably expressing hERG; higher = less effect of the substance
Out of some 310,000 compounds screened, about 2,200 (0.71%) showed an effect of 50% or more. Effects have a minus sign here. For the sample, strong results were picked, then their nearest neighbours and some compounds at random.
Readout Type: hERG current change (%, negative = inhibition) at 1uM
Please don't drop the unit; write it after the number.

The examples below pair each entry with its known result.
[[record]]
compound = "CSc1ccc(CN2CCN(C(=O)COc3ccc(C)cc3)CC2)cc1.O=C(O)C(=O)O"
obs_value = "-19.3%"

[[record]]
compound = "Cc1cccc(OCC(=O)N2CCN(C(=O)COc3ccc(Cl)cc3)CC2)c1"
obs_value = "-56.6%"

[[record]]
compound = "Cc1cccc(OCC(=O)N2CCOCC2)c1"
obs_value = "17.1%"

[[record]]
compound = "Cc1ccc(OCC(=O)N2CCN(C(=O)c3ccc([N+](=O)[O-])cc3)CC2)cc1"
obs_value = "-19.5%"

[[record]]
compound = "Cc1cccc(OCC(=O)N2CCN(S(C)(=O)=O)CC2)c1"
obs_value = "9.87%"

[[record]]
compound = "COCCCn1c(=O)/c(=C\\c2ccccc2OC(F)F)s/c1=C(/C#N)C(=O)N1CCOCC1"
obs_value = "9.19%"

[[record]]
compound = "COc1cccc(CNC(=O)C2CCN(S(=O)(=O)c3ccc4c(c3)CCC(=O)N4)CC2)c1"
obs_value = "17.5%"

[[record]]
compound = "COc1ccc(/C=C/CN2CCN(CC(C)C)C(CCO)C2)cc1 (stereo not shown)"
obs_value = "-0.433%"

[[record]]
compound = "CC1CCCCN1Cc1nc2c(c(=O)n(C)c(=O)n2C)n1Cc1c(F)cccc1Cl (stereo not shown)"
obs_value = "11.4%"


## Input Dear colleague, I am looking for the recorded hERG current change (%, negative = inhibition) at 1uM of the following compound: CCOc1ccc(CN2CCN(C/C=C/c3ccc(OC)cc3)CC2CCO)cc1 (stereo not shown)
## Output -77.1%

====

- Assayed System: human ether-à-go-go-related gene (hERG) potassium channel (human, UniProt Q12809)
- Experimental Details: primary screen, population patch clamp on CHO cells stably expressing hERG; higher = less effect of the substance
Screen size: about 310,000 compounds; about 2,200 (0.71%) showed an effect of 50% or more. Effects have a minus sign here. The entries come from a sample that favours strong results as a whole.
Readout Type: hERG current change (%, negative = inhibition) at 1uM (%)
State the answer as a number, implicitly in %.

The examples below pair each entry with its known result.
[[record]]
compound = "Cc1ccc(OCc2cc(C(=O)NCC(C)(C)N3CCOCC3)no2)cc1C"
assayed_system = "human ether-à-go-go-related gene (hERG) potassium channel (human, UniProt Q12809)"
obs_value = 4.83

[[record]]
compound = "CCOC(=O)c1sc(NC(=O)CCN2CCN(C)CC2)c(C(=O)OCC)c1C"
assayed_system = "human ether-à-go-go-related gene (hERG) potassium channel (human, UniProt Q12809)"
obs_value = -15.3

[[record]]
compound = "CCOC(=O)c1cc2c(=O)n3ccccc3nc2n(CC2CCCO2)c1=NC(C)=O (stereo not shown)"
assayed_system = "human ether-à-go-go-related gene (hERG) potassium channel (human, UniProt Q12809)"
obs_value = 16.6

[[record]]
compound = "COC(=O)C1=C(c2cc3ccccc3s2)C[C@@H]2CC[C@H]1N2C(=O)NCCCOC(C)C"
assayed_system = "human ether-à-go-go-related gene (hERG) potassium channel (human, UniProt Q12809)"
obs_value = 2.84

[[record]]
compound = "COc1ccc(NC(=O)C2CCC(C)(C(=O)O)C2(C)C)cc1 (stereo not shown)"
assayed_system = "human ether-à-go-go-related gene (hERG) potassium channel (human, UniProt Q12809)"
obs_value = 11.1


## Input Dear colleague, I am looking for the recorded hERG current change (%, negative = inhibition) at 1uM of the following compound: CCN(CC1CCCO1)C(=O)c1cc(COc2ccccc2SC)on1 (stereo not shown)
## Output -58.9

## Input Would you mind doing "O=C(Cn1cnc(S(=O)(=O)N2CCCC2)c1)Nc1cccc(F)c1" as well?
## Output 14.4

## Input Would you mind doing "Cc1c(NC(=O)/C(C#N)=C/c2ccccc2)c(=O)n(-c2ccccc2)n1C" as well?
## Output 8.78

## Input Would you mind doing "O=S(=O)(c1ccccc1Cl)N1CCC(Cc2ccccc2)CC1" as well?
## Output 13.5

## Input Would you mind doing COc1ccc(OCc2cc(C(=O)N(C)CC3CCCCO3)no2)c(Cl)c1 (stereo not shown) as well?
## Output -1.77

## Input Would you mind doing "Br.CCCCCCCCCn1c2c(c(=N)c3c1CCC3)CCC2" as well?
## Output -65.5

## Input Would you mind doing "COc1ccc(NC(=O)c2ccc(S(=O)(=O)N3CCCC3)cc2)cc1OC" as well?
## Output -102

## Input Would you mind doing "CCC(CC)c1nnc(NC(=O)c2ccc(N3CCCCC3)c([N+](=O)[O-])c2)s1" as well?
## Output -9.23

## Input Would you mind doing Cc1ccc(-c2nc(CS(=O)CC(=O)NCCN3CCCCCC3)c(C)o2)cc1 (stereo not shown) as well?
## Output 15.5

## Input Would you mind doing O=C(CCc1nnc(CCc2ccccc2)o1)NC(c1cccnc1)C(F)(F)F (stereo not shown) as well?
## Output -0.569
